Values compiled from paper doi:10.1101/557116.

targetDesc: bacILT7 24-435 (human, UniProt P59901 24-435)
Sequence (P59901 24-435): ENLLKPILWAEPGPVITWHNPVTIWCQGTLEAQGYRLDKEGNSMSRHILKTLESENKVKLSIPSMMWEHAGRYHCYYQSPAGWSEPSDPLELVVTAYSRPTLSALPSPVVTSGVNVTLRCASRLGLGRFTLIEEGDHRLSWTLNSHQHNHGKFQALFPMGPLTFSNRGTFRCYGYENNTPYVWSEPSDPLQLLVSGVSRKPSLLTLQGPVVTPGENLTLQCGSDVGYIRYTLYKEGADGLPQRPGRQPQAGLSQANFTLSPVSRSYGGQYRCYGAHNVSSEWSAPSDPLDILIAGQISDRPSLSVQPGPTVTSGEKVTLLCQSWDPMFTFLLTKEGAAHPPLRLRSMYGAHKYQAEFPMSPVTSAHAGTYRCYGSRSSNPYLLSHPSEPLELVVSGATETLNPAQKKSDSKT
assayName: SPR
quantityName: pKd
Just the number, please; pKd means minus log10 of the concentration in mol/L.

pKd reading for GST-BST2 (80-147) (domain or fragment, human, UniProt Q10589 80-147, looked up) GFQDVEAQAATCNHTVMALMASLDAEKAQGQKKVEELEGEITTLNHKLQDASAEVERLRRENQVLSVR : 5.58
